- assayedSystem: UniProt:C7FF04
- measurementProtocol: Mushroom tyrosinase inhibitory assay (o-diphenolase activity, L-DOPA as substrate);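 note: enzyme and test sample preincubated 10 min at 25 °C in pH 6.8 phosphate buffer, 50% DMSO vehicle as control, enzyme-free mixture as blank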
- Format: biochemical
- conditionLabel: 200 μM; L-DOPA substrate; read-out: Mushroom Tyrosinase Inhibition % Inhibition (at 200 μM)
Rule: inhibition at 200 µM of 40% or more gives y; anything lower gives n.

Please review the following examples before continuing.
1) COc1cc(O)c(-c2coc3cc(O)cc(O)c3c2=O)cc1O [Compound 5, Khrinone B] : y
2) COc1ccc([C@@H]2COc3cc(O)ccc3C2)c(O)c1 [Compound 19, (3R)-Vestitol] : n
3) COc1ccc([C@@H]2COc3cc(O)ccc3C2)c(OC)c1O [Compound 20, (3R)(+)-Mucronulatol] : y
4) COc1ccc([C@H]2COc3cc(O)cc(O)c3C2=O)c(OC)c1O [Compound 17, (3S)-Secundiflorol H] : y

Here is another molecule to look at.
Exercise: Evaluate COc1cc(OC)c(C2COc3cc(O)ccc3C2=O)cc1O (centres unmarked) [Compound 12, Dalparvin] : inhibition at 200 µM at minimum 40%?
Solution: n

Hey, just so you know, these numbers are from paper PMC6100075.
